- System: A498 renal
- Assay notes: NCI-60 one-dose screen, 48 h
- Experimental setup: 10 µM unless noted
Compounds without any hit were thinned out: in the full panel of roughly 83,000, 20% have a hit. Calls of active or inactive are those of the source. The calls were made as follows: active = growth percent below 10; inactive = the rest.
Assign a class; possible classes are active, inactive

# Compound, Category
records = [
    ("C=CCC(CCCC)(C(=O)OCC)C(=O)OCC", "inactive"),
    ("CCNc1ccc(-c2nc3ccccc3n3cccc23)cc1", "inactive"),
    ("Cc1ccc(S(=O)(=O)OCCCOS(=O)(=O)c2ccc(C)cc2)cc1", "inactive"),
    ("CCCn1nc(C(=O)N(C)Cc2ccccc2)c2c1CCC(N1CCc3ccccc31)C2 (stereo not given)", "inactive"),
]

Lab note: next compound to report on.
[Q] What call does the record list for "CNCc1cccc2c1OCCOCCOCCNS(=O)(=O)c1ccc(cc1)-c1cnc(N)c(n1)C(=O)N2" ?
[A] inactive

---

- System: HT29 colon
- Assay notes: NCI-60 one-dose screen, 48 h (100 = growth as untreated, 0 = no growth, -100 = all killed)
- Experimental setup: 10 µM unless noted
- Experimental: Growth inhibition of the HT29 human tumor cell line is measured as a screen for anti-cancer activity. Cells are grown in 96 well plates and exposed to the test compound for 48 hours. Compounds are tested at a single concentration, which is 10^-5 M for most compounds. The reported endpoint is percent growth (GI% or GIPRCNT), where numbers from 0 - 100% represent growth inhibition, and numbers from -100% - 0 represent cell death. For example, a value of 40 represents 60% growth inhibition. […]
The panel holds about 83,000 compounds, 20% with a hit somewhere; the sample as a whole holds those more often. Calls of active or inactive are those of the source. How the source made its calls: active means growth percent below 10; inactive means the rest.
Reported endpoint: growth

Record excerpt, results attached:
# Smiles data, growth
data = [
    ("Fc1ccc(Cn2cc(CSc3nc4ccccc4o3)nn2)cc1", "99.8% (inactive)"),
    ("Cc1ccc2nc(NC(=O)CSc3nc(-c4ccccc4)c(C#N)c4nnnn34)sc2c1", "106% (inactive)"),
    ("CC(=O)O[C@H]1C[C@@H]2C(C)(C)C(=O)CC[C@@]2(C)c2ccc(C(C)C)cc21", "111% (inactive)"),
    ("COc1ccc(C#Cc2ccc(=O)oc2-c2cc(OC)c(OC)c(OC)c2)cc1O", "33.9% (inactive)"),
    ("COc1cnc2c(c1)C(=O)c1c-2n(CCCCl)c(=O)c2ccncc12", "49.5% (inactive)"),
    ("S=c1[nH]c(=S)c2c(-c3ccccc3)c(-c3ccccc3)oc2[nH]1", "102% (inactive)"),
    ("Ic1ccccc1I", "107% (inactive)"),
    ("Cc1ccc(-c2csc(N(C(=O)N3CCN(c4cc5c(cc4F)c(=O)c(C(=O)O)cn5C4CC4)CC3)c3ccccc3)n2)cc1", "3.8% (active)"),
    ("Cc1ccc(S(=O)(=O)c2nc(-c3ccccc3)oc2Sc2nc3ccccc3s2)cc1", "94.2% (inactive)"),
]

Continue with the compound presented below.
[Q] Could you tell me which growth is on file for "NC(=O)c1c(NC(=O)c2cccs2)sc2c1CCC(=O)C2" ?
[A] 46.3% (inactive)

---

- System: T-47D breast
- Assay notes: NCI-60 one-dose screen, 48 h
- Experimental setup: 10 µM unless noted
The panel holds about 83,000 compounds, 20% with a hit somewhere; the sample as a whole holds those more often. Activity calls are given as the source filed them. The calls were made as follows: active = growth percent below 10; inactive = the rest.
Assign a class; possible classes are Yes (active), No (inactive)

These recorded examples may help you get a feel for the data.
# Compound, Category
data = [
    ("CC1(C)CC(=O)c2c(nn(-c3ccc(Br)cc3)c2-c2cn(-c3ccccc3)nc2-c2cccnc2)C1", "No"),
    ("CN(CCC(=O)c1ccccc1)CCC(=O)c1ccccc1", "No"),
]

[Q] What call does the record list for CC(C)=CCNc1ncnc2c1ncn2C1OC(CO)C(O)C1O (stereo not given) ?
[A] Yes

[Q] Repeat for the following compound: "CCN(CC)c1ccc(/C=N/NC(=O)Cc2ccc(Nc3ccnc(C(F)(F)F)c3)cc2)c(O)c1"
[A] No

[Q] Repeat for the following compound: COc1ccc(C2=CC(c3cc(OC)c(OC)c(OC)c3)n3ncnc3N2)cc1 (stereo not given)
[A] No
